# TESTED_SYSTEM: DRB1*0701 (Homo sapiens, UniProt P01903+P01911, A100R/A102G/A103Q/D57E/D86V/E43K/F76Y/K127E/L162R/M171V/P40G/Q125H/Q99D/R33Q/R42Y/R54Q/S133A/S66F/T210M/V115G/Y107V/Y59L/Y89S)
# Construct: Epstein-Barr virus (EBV) transformed homozygous cell lines were used as sources of human HLA Class II molecules; endogenous in cells; host or cells: PITOUT (EBV-transformed homozygous B cell line)
# RUN_DESCRIPTION: Class II peptide-binding assay DRB1*0701 (DR7)
# APPLIED_CONDITIONS: known HLA-DR and DQ restricted epitopes, Table 6
pIC50: −log10 of the molar value.
MEASURED_QUANTITY: pIC50

SMILES_INPUT | MEASURED_QUANTITY | RELATION | ASSAY_VALUE
CC(C)C[C@H](NC(=O)[C@H](Cc1c[nH]cn1)NC(=O)[C@H](CC(=O)O)NC(=O)[C@H](CC(C)C)NC(=O)[C@@H](NC(=O)[C@H](CC(N)=O)NC(=O)[C@@H](N)CC(=O)O)C(C)C)C(=O)N[C@H](C(=O)NCC(=O)N[C@@H](CCCNC(=N)N)C(=O)N[C@@H](CO)C(=O)N[C@@H](CS)C(=O)O)[C@@H](C)O | pIC50 | < | 4.70
CC[C@H](C)[C@H](NC(=O)[C@H](CC(=O)O)NC(=O)[C@H](CC(C)C)NC(=O)[C@H](Cc1ccc(O)cc1)NC(=O)[C@@H]1CCCN1C(=O)[C@@H](NC(=O)[C@@H](N)CC(=O)O)[C@@H](C)O)C(=O)N[C@H](C(=O)N[C@@H](Cc1ccc(O)cc1)C(=O)N[C@@H](Cc1c[nH]cn1)C(=O)N[C@@H](Cc1ccccc1)C(=O)N[C@H](C(=O)N[C@@H](CCSC)C(=O)N[C@@H](CCC(N)=O)C(=O)N[C@@H](CCCNC(=N)N)C(=O)N[C@@H](CC(C)C)C(=O)N1CCC[C@H]1C(=O)N[C@@H](CC(C)C)C(=O)O)C(C)C)[C@@H](C)O | pIC50 | = | 6.41
CC[C@H](C)[C@H](NC(=O)[C@@H](NC(=O)[C@H](CCCCN)NC(=O)[C@H](CCC(=O)O)NC(=O)[C@H](CC(C)C)NC(=O)[C@H](CC(C)C)NC(=O)[C@@H]1CCCN1C(=O)[C@H](CC(C)C)NC(=O)[C@@H](N)CC(C)C)C(C)C)C(=O)NCC(=O)N[C@@H](C)C(=O)NCC(=O)N[C@@H](CCCCN)C(=O)N1CCC[C@H]1C(=O)N[C@@H](CC(C)C)C(=O)O | pIC50 | < | 4.70
CC[C@H](C)[C@H](NC(=O)[C@H](CO)NC(=O)[C@H](CCC(=O)O)NC(=O)[C@H](CC(C)C)NC(=O)[C@H](C)NC(=O)[C@@H](N)CC(=O)O)C(=O)N[C@@H](CCSC)C(=O)N[C@H](C(=O)N[C@H](C(=O)N[C@@H](CCCCN)C(=O)N[C@@H](CO)C(=O)N[C@H](C(=O)N[C@@H](CO)C(=O)N[C@@H](Cc1ccccc1)C(=O)N[C@@H](CCCNC(=N)N)C(=O)O)C(C)C)[C@@H](C)O)[C@@H](C)O | pIC50 | = | 7.19

* * *

# TESTED_SYSTEM: DRB1*0802 (Homo sapiens, UniProt P01903+P01911, A100R/A103L/A169T/F76Y/H45Y/I96F/K41T/L162R/M171V/P40S/Q125H/Q178H/Q39Y/Q99D/R218S/R42G/S66Y/V115G/W38E)
# Construct: Epstein-Barr virus (EBV) transformed homozygous cell lines were used as sources of human HLA Class II molecules; endogenous in cells; host or cells: OLL (EBV-transformed homozygous B cell line)
# RUN_DESCRIPTION: Class II peptide-binding assay DRB1*0802 (DR8w2)
pIC50: −log10 of the molar value.
pIC50 values for the compounds below.

SMILES_INPUT | RELATION | pIC50
CC[C@H](C)[C@H](NC(=O)CNC(=O)[C@@H]1CCCN1C(=O)[C@H](CC(C)C)NC(=O)[C@H](CC(=O)O)NC(=O)[C@H](Cc1ccccc1)NC(=O)[C@H](CCC(=O)O)NC(=O)[C@@H](NC(=O)[C@@H](NC(=O)[C@H](Cc1ccccc1)NC(=O)[C@@H](N)CCC(=O)O)C(C)C)C(C)C)C(=O)N[C@@H](CCCCN)C(=O)N[C@@H](C)C(=O)O | = | 4.77
CC(C)C[C@H](NC(=O)[C@H](Cc1c[nH]cn1)NC(=O)[C@H](CC(=O)O)NC(=O)[C@H](CC(C)C)NC(=O)[C@@H](NC(=O)[C@H](CC(N)=O)NC(=O)[C@@H](N)CC(=O)O)C(C)C)C(=O)N[C@H](C(=O)NCC(=O)N[C@@H](CCCNC(=N)N)C(=O)N[C@@H](CO)C(=O)N[C@@H](CS)C(=O)O)[C@@H](C)O | < | 4.70
CC[C@H](C)[C@H](NC(=O)[C@H](CO)NC(=O)[C@H](CCC(=O)O)NC(=O)[C@H](CC(C)C)NC(=O)[C@H](C)NC(=O)[C@@H](N)CC(=O)O)C(=O)N[C@@H](CCSC)C(=O)N[C@H](C(=O)N[C@H](C(=O)N[C@@H](CCCCN)C(=O)N[C@@H](CO)C(=O)N[C@H](C(=O)N[C@@H](CO)C(=O)N[C@@H](Cc1ccccc1)C(=O)N[C@@H](CCCNC(=N)N)C(=O)O)C(C)C)[C@@H](C)O)[C@@H](C)O | = | 5.85

* * *

# TESTED_SYSTEM: DRB1*0404 (Homo sapiens, UniProt P01903+P01911, A100R/A169T/F76Y/I96L/K127E/L162R/M171V/N62H/P40V/Q125Y/R42H/S133A/S149N/S66Y/V209L/W38E)
# Construct: Epstein-Barr virus (EBV) transformed homozygous cell lines were used as sources of human HLA Class II molecules; endogenous in cells; host or cells: BIN40 (EBV-transformed homozygous B cell line)
# RUN_DESCRIPTION: Class II peptide-binding assay DRB1*0404 (DR4w14)
# APPLIED_CONDITIONS: known HLA-DR and DQ restricted epitopes, Table 6
MEASURED_QUANTITY: IC50 (µM)

SMILES_INPUT | MEASURED_QUANTITY | UNIT_TAG | ASSAY_VALUE
CC[C@H](C)[C@H](NC(=O)[C@H](CC(N)=O)NC(=O)[C@@H](N)CCC(N)=O)C(=O)N[C@@H](CC(C)C)C(=O)N[C@@H](CC(C)C)C(=O)N[C@@H](CO)C(=O)N[C@@H](CC(N)=O)C(=O)N[C@@H](C)C(=O)N1CCC[C@H]1C(=O)N[C@@H](CC(C)C)C(=O)NCC(=O)N1CCC[C@H]1C(=O)N[C@@H](CCC(N)=O)C(=O)N[C@@H](Cc1ccccc1)C(=O)N1CCC[C@H]1C(=O)O | IC50 | µM | 0.143

* * *

# TESTED_SYSTEM: DRB1*1101 (Homo sapiens, UniProt P01903+P01911, A100R/A169T/A87E/I96F/K41T/L162R/M171V/P40S/Q125H/Q178H/Q39Y/Q99D/R42S/S66Y/T262R/V115G/W38E)
# Construct: Epstein-Barr virus (EBV) transformed homozygous cell lines were used as sources of human HLA Class II molecules; endogenous in cells; host or cells: SWEIG (EBV-transformed homozygous B cell line)
# Sequence (P01903 26-254, other chains not shown): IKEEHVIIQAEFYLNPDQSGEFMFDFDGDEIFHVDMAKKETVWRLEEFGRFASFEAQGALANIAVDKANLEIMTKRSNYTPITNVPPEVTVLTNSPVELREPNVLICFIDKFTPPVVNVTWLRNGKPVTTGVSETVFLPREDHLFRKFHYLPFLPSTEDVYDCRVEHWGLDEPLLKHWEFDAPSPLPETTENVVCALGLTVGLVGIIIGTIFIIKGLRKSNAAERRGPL
# RUN_DESCRIPTION: Class II peptide-binding assay DRB1*1101 (DR5w11)
Ends that are not written are not given here.
MEASURED_QUANTITY: IC50 (nM)

RECORD_SEQUENCE | MEASURED_QUANTITY | ASSAY_VALUE
DTGRKLFRVYSNFLR | IC50 | 26
DIEKKIAKMEKASSVFNVVNS | IC50 | 90
YTLLQAAPALDKLKLTGDEATGANI | IC50 | 200

* * *

# TESTED_SYSTEM: DRB1*0401 (Homo sapiens, UniProt P01903+P01911, A100K/A169T/F76Y/I96L/K127E/L162R/M171V/N62H/P40V/Q125Y/R42H/S133A/S149N/S66Y/V115G/V209L/W38E)
# Construct: Epstein-Barr virus (EBV) transformed homozygous cell lines were used as sources of human HLA Class II molecules; endogenous in cells; host or cells: PREISS (EBV-transformed homozygous B cell line)
# RUN_DESCRIPTION: Class II peptide-binding assay DRB1*0401 (DR4w4)
# APPLIED_CONDITIONS: known HLA-DR and DQ restricted epitopes, Table 6
Ends that are not written are not given here.
IC50 values for the sequences below.

RECORD_SEQUENCE | IC50 [nM]
YSGPLKAEIAQRLEDV | 2570
FNNFTVSFWLRVPKVSASHLEQY | 93

Data credit: patent US20070184519A1
